Task for the reader: assign each of the following binders its reported apical domain:HSA.
- experimental.system: T1, CD71 apical domain (human, UniProt P02786 189-383, limits assumed)
- T1 construct: domain: apical domain
- T1 sequence (P02786 189-383 limits assumed): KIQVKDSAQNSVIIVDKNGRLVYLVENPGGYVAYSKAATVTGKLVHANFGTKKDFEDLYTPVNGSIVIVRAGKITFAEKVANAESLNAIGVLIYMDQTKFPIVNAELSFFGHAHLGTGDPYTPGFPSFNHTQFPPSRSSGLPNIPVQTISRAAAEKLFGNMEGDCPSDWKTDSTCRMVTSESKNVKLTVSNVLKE
- assay.name: solution ELISA screen, signal ratio to HSA control
Numbers only, in ratio.

1) SEQ ID NO 223 (designed binder, not shown: small tags and cut ends) MLPAPKNLVVSRVTEDSARLSWTAPDAAFDSFFIGYLEPQPPGEAIGLAVPGSERSYDLTGLKPGTEYNVTIQGVKGGFPSVPLQANFTT
197

Would you be so kind as to report apical domain:HSA for each listed record?
1. SEQ ID NO 228 (designed binder, not shown: small tags and cut ends) MLPAPKNLVVSRVTEDSARLSWTAPDAAFDSFYIAYAEPRPDGEAIVLRVPGSERSYDLTGLKPGTEYSVLIHGVKGGLLSSPLAASFTT
2. SEQ ID NO 209 (designed binder, not shown: small tags and cut ends, also called ABX1198) MLPAPKNLVVSRVTEDSARLSWTAPDAAFDSFYIAYAEPRPDGEAILLQVPGSCRSYDLTGLKPGTEYSVLIHGVKGGLLSSPLTAIFTT
3. SEQ ID NO 215 (designed binder, not shown: small tags and cut ends) MLPAPKNLVVSRVTEDSARLSWTAPDAAFDSFYIAYAEPRPDGEAIVLWVPGSERSYDLTGLKPGTEYSVLIHGVKGGLLSSPLIAEFTT

238
466
261

Attribution: patent US20220332795A1
